- Tested on: NCI-H146 human small cell lung carcinoma cells
- ASSAY OVERVIEW: Cellular efficacy in human tumor cell line (MTS viability assay)
- Format: cell-based
- MEASUREMENT CONDITIONS: NCI-H146; 10% human serum, 48 hours; Table 1; read-out: NCI-H146 Cellular Efficacy EC50
QUANTITY KIND: EC50 (nM)

1) CC(C)N(C)CC[C@H](CSc1ccccc1)Nc1ccc(S(=O)(=O)NC(=O)c2ccc(N3CCN(CC4=C(c5ccc(Cl)cc5)CCC(C)(C)C4)CC3)cc2)cc1S(=O)(=O)C(F)(F)Cl: 52.8
2) CC1(C)CCC(c2ccc(Cl)cc2)=C(CN2CCN(c3ccc(C(=O)NS(=O)(=O)c4ccc(N[C@H](CCN5CCOCC5)CSc5ccccc5)c(S(=O)(=O)C(F)(F)Cl)c4)cc3)CC2)C1: 15.8
3) CC1(C)CCC(CN2CCN(c3ccc(C(=O)NS(=O)(=O)c4ccc(N[C@H](CCN5CCOCC5)CSc5ccccc5)c(S(=O)(=O)C(F)(F)Cl)c4)cc3)CC2)=C(c2ccc(Cl)cc2)C1: 29.1

[a] CC(C)N(C)CC[C@H](CSc1ccccc1)Nc1ccc(S(=O)(=O)NC(=O)c2ccc(N3CCN(CC4=C(c5ccc(Cl)cc5)CCCC4)CC3)cc2)cc1S(=O)(=O)C(F)(F)F
[b] CC1(C)CCC(CN2CCN(c3ccc(C(=O)NS(=O)(=O)c4ccc(N[C@H](CCN5CCCC5)CSc5ccccc5)c(S(=O)(=O)C(F)(F)Cl)c4)cc3)CC2)=C(c2ccc(Cl)cc2)C1
Kindly identify the item with the lower EC50 figure among these two: a and b Give the chosen item's label as your response.
b
(b: 13 nM, a: 37.8 nM)
